STUDY_SYSTEM: Beta-2 adrenergic receptor (Homo sapiens, UniProt P07550)
Sequence (P07550 whole entry): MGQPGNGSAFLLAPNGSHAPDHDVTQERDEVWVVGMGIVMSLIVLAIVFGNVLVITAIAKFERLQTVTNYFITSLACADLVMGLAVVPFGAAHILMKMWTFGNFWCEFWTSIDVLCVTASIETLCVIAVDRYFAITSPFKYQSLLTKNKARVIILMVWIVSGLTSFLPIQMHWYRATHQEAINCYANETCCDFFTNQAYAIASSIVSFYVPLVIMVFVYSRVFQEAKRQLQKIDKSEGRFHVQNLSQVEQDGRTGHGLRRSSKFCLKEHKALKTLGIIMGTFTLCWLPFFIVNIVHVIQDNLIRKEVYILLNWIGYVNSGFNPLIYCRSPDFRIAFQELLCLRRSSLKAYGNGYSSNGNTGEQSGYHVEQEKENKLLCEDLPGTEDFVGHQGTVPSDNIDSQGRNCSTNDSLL
TEST_PROTOCOL: Agonist activity at human beta2 adrenergic receptor expressed in HEK293 cells assessed as increase in cAMP accumulation after 60 mins by HTRF assay
Assay type: functional, cell-based
CONDITIONS: read-out: EC50
pEC50: −log10 of the molar value.
MEASURE_NAME: pEC50

>  <COMPOUND>
CC(C)(CCc1ccccc1)NC[C@H](O)c1ccc(O)c2[nH]c(=O)ccc12

>  <MEASURE_NAME>
pEC50

>  <VALUE>
10.68

$$$$
>  <COMPOUND>
O=c1ccc2c(C(O)CNCCCc3cccc(O)c3)ccc(O)c2[nH]1 (configuration not stated)

>  <MEASURE_NAME>
pEC50

>  <VALUE>
10.44

$$$$

Reference for the values: ChEMBL document CHEMBL4340501
